These data points were gathered from the supplement of paper PMC13207355.

System: E13 (patient-derived glioblastoma stem cells of classical subtype)
procedure text: surviving fraction (nuclei count normalised to DMSO); higher = more cells surviving (less toxic);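 further: nuclei counted by high-content imaging of Hoechst-stained cells in laminin-coated 384-well plates, relative to 0.1% DMSO vehicle wells, with staurosporine as cell-death control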
condition parameters: 111.1 nM; exposure time: 72 h
For each entry below, report its surviving fraction value.
One number for each entry.

[
  {
    "molecule": "CC(=O)O[C@@]12CO[C@@H]1C[C@H](O)[C@@]1(C)C(=O)[C@H](O)C3=C(C)[C@@H](OC(=O)[C@H](O)[C@@H](NC(=O)OC(C)(C)C)c4ccccc4)C[C@@](O)([C@@H](OC(=O)c4ccccc4)[C@H]21)C3(C)C [Docetaxel]",
    "surviving fraction": 0.267
  },
  {
    "molecule": "C[C@@H](Oc1cc(-c2cnn(C3CCNCC3)c2)cnc1N)c1c(Cl)ccc(F)c1Cl [Crizotinib]",
    "surviving fraction": 0.863
  },
  {
    "molecule": "Oc1c(Cl)cc(Cl)c(Cl)c1Cc1c(O)c(Cl)cc(Cl)c1Cl [Hexachlorophene]",
    "surviving fraction": 0.796
  }
]

Please report surviving fraction for every entry that follows.
1. COc1nc(C)nc(Cl)c1NC1=NCCN1 [Moxonidine]
2. N=C(NCCCCCCNC(=N)NC(=N)Nc1ccc(Cl)cc1)NC(=N)Nc1ccc(Cl)cc1 [Chlorhexidine]

OUT:
0.915
1.01

Please report surviving fraction for every entry that follows.
1. Nc1nc2n[nH]nc2c(=O)[nH]1 [Azaguanine-8]
2. O=C(/C=C/c1cccnc1)NCCCCC1CCN(C(=O)c2ccccc2)CC1 [Daporinad]
3. CCCCCCNC(=O)n1cc(F)c(=O)[nH]c1=O [Carmofur]
4. OC[C@H]1O[C@@H](Oc2ccc(O)cc2)[C@H](O)[C@@H](O)[C@@H]1O [Arbutin]

OUT:
0.87
0.732
0.986
0.917

###

For each entry below, report its surviving fraction value.
Test system: E34 (patient-derived glioblastoma stem cells of proneural subtype)
procedure text: surviving fraction (nuclei count normalised to DMSO); higher = more cells surviving (less toxic)
condition parameters: 12.3 nM; exposure time: 72 h
Where a name gives a salt, the structure may show the parent alone.
Numbers only.

Before answering, review these 3 worked examples.
[
  {
    "compound": "COc1ccc2[nH]c([S+]([O-])Cc3ncc(C)c(OC)c3C)nc2c1 (stereo unspecified) [Omeprazole]",
    "data value": 1.19
  },
  {
    "compound": "C[C@H](Cc1cc2c(c(C(N)=O)c1)N(CCCO)CC2)NCCOc1ccccc1OCC(F)(F)F [Silodosin]",
    "data value": 0.923
  },
  {
    "compound": "C[C@H]1O[C@@H](O[C@H]2[C@@H](O)C[C@H](O[C@H]3[C@@H](O)C[C@H](O[C@H]4CC[C@@]5(C)[C@H](CC[C@@H]6[C@@H]5C[C@@H](O)[C@]5(C)[C@@H](C7=CC(=O)OC7)CC[C@]65O)C4)O[C@@H]3C)O[C@@H]2C)C[C@H](O)[C@@H]1O [Digoxin]",
    "data value": 0.745
  }
]

Please report surviving fraction for every entry that follows.
1. O=C(Nc1ccc([N+](=O)[O-])cc1Cl)c1cc(Cl)ccc1O [Niclosamide]
2. CC(C)CC(=O)N[C@H](C(=O)N[C@H](C(=O)N[C@@H](CC(C)C)[C@@H](O)CC(=O)N[C@@H](C)C(=O)N[C@@H](CC(C)C)[C@@H](O)CC(=O)O)C(C)C)C(C)C [Pepstatin A]

OUT:
1. 0.542
2. 1.18

Please report surviving fraction for every entry that follows.
1. Cc1nc2ccccn2c(=O)c1CCN1CCC(C(=O)c2ccc(F)cc2)CC1 [Pirenperone]
2. CC(C)NCC(O)c1cc(O)cc(O)c1 (stereo unspecified) [Metaproterenol sulfate, orciprenaline sulfate]
3. COc1cc2c(cc1-c1c(C)noc1C)ncc1[nH]c(=O)n([C@H](C)c3ccccn3)c12
4. CCCCC(CC)CNC(=N)NC(=N)NCCCCCCNC(=N)NC(=N)NCC(CC)CCCC (stereo unspecified) [Alexidine dihydrochloride]
5. Nc1ccn([C@@H]2O[C@H](CO)[C@@H](O)[C@@H]2O)c(=O)n1 [Cytarabine]
6. Clc1ccc(C(Cn2ccnc2)OCc2ccsc2Cl)c(Cl)c1 (stereo unspecified) [Tioconazole]

OUT:
[1.22, 1.02, 1.11, 1.11, 0.803, 0.871]

Please report surviving fraction for every entry that follows.
1. c1ccc2c(c1)[I+]c1ccccc1-2 [Diphenyleneiodonium chloride]
2. COc1nc(C)nc(Cl)c1NC1=NCCN1 [Moxonidine]
3. NCCNc1ccc(NCCN)c2c1C(=O)c1ccncc1C2=O [Pixantrone dimaleate]
4. O=C1c2c(O)ccc(O)c2C(=O)c2c(NCCNCCO)ccc(NCCNCCO)c21 [Mitoxantrone]
5. Nc1ncn(C2OC(CO)C(O)C2O)c(=O)n1 (stereo unspecified) [Azacytidine-5]

OUT:
1: 0.634; 2: 0.957; 3: 0.771; 4: 0.494; 5: 0.979
